targetOfAssay: A. viridans PO (Aerococcus viridans)
assay: A. viridans PO inhibitory activity assay (quinoneimine dye)
Type: biochemical
runConditions: [TPP] = 60 µM
Protocol: A. viridans PO and horseradish peroxidase were purchased from Sigma. A. viridans PO activity was determined by monitoring appearance of quinoneimine dye at 550 nm using a microplate reader (CLARIOstar) and conducted as described[5] with some modifications. […] The IC50 values were calculated from nonlinear regression curve fitting using GraphPad Prism. […]
Item-by-item account of vs TPP: affinity of the compound relative to that of TPP (= [TPP]/IC50)
readout: vs TPP: affinity of the compound relative to that of TPP (= [TPP]/IC50)

compound	numericValue
Cc1ncc(Cn2cc(CCCC(C(=O)[O-])C(=O)[O-])nn2)c(N)n1.[K+].[K+] [14b]	1.22
Cc1ncc(Cn2cc(CCCC(=O)[O-])nn2)c(N)n1.[K+] [16a]	0.30
COC(=O)C(CCc1cn(Cc2cnc(C)nc2N)nn1)C(=O)OC [13a]	0.32
Cc1ncc(Cn2cc(CCCCC(=O)[O-])nn2)c(N)n1.[K+] [16b]	0.35
COC(=O)CCCCc1cn(Cc2cnc(C)nc2N)nn1 [15b]	0.28
Cc1ncc(Cn2cc(CCC(C(=O)[O-])C(=O)[O-])nn2)c(N)n1.[K+].[K+] [14a]	0.69
COC(=O)C(CCCc1cn(Cc2cnc(C)nc2N)nn1)C(=O)OC [13b]	0.39
COC(=O)CCCc1cn(Cc2cnc(C)nc2N)nn1 [15a]	0.22

====

Item-by-item account of Ki
targetOfAssay: S. cerevisiae PDC (Saccharomyces cerevisiae, UniProt P06169)
Construct: purchased Sigma
Sequence (P06169 2-563 limits assumed): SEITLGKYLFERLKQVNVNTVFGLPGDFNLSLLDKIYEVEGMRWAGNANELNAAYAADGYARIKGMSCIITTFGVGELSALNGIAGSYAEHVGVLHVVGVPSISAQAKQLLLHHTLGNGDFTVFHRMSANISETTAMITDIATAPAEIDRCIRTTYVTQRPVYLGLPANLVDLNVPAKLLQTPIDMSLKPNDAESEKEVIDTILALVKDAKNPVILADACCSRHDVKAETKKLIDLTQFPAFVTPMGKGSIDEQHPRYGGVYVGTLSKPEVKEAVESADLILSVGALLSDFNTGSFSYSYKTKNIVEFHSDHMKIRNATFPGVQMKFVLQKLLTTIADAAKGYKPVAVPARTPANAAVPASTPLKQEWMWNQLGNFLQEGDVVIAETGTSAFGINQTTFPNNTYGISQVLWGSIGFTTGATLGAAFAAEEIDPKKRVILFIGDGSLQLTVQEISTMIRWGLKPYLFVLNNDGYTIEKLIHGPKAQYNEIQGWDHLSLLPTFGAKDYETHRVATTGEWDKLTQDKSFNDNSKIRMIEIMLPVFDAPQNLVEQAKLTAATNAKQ
assay: S. cerevisiae PDC inhibitory activity assay (DCPIP reduction)
Assay type: biochemical
runConditions: calculated from KM(TPP) 15 µM using [TPP]/IC50 = KM(TPP)/KI

compound	targetOfAssay	Ki (µM)
Cc1ncc(Cn2cc(CCCCC(=O)[O-])nn2)c(N)n1.[K+] [16b]	S. cerevisiae PDC (Saccharomyces cerevisiae, UniProt P06169)	50
Cc1ncc(Cn2cc(CCCC(=O)[O-])nn2)c(N)n1.[K+] [16a]	S. cerevisiae PDC (Saccharomyces cerevisiae, UniProt P06169)	58
Cc1ncc(Cn2cc(CCC(C(=O)[O-])C(=O)[O-])nn2)c(N)n1.[K+].[K+] [14a]	S. cerevisiae PDC (Saccharomyces cerevisiae, UniProt P06169)	32
Cc1ncc(Cn2cc(CCCC(C(=O)[O-])C(=O)[O-])nn2)c(N)n1.[K+].[K+] [14b]	S. cerevisiae PDC (Saccharomyces cerevisiae, UniProt P06169)	21

====

targetOfAssay: S. cerevisiae PDC (Saccharomyces cerevisiae, UniProt P06169)
Construct: purchased Sigma
assay: S. cerevisiae PDC inhibitory activity assay (DCPIP reduction)
Assay type: biochemical

compound	readoutUnits	IC50
COC(=O)CCCCc1cn(Cc2cnc(C)nc2N)nn1 [15b]	µM	789
COC(=O)CCCc1cn(Cc2cnc(C)nc2N)nn1 [15a]	µM	883
COC(=O)C(CCc1cn(Cc2cnc(C)nc2N)nn1)C(=O)OC [13a]	µM	939
COC(=O)C(CCCc1cn(Cc2cnc(C)nc2N)nn1)C(=O)OC [13b]	µM	713

====

targetOfAssay: A. viridans PO (Aerococcus viridans)
assay: A. viridans PO inhibitory activity assay (quinoneimine dye)
Format: biochemical
runConditions: [Compound] = 250 μM, [TPP] = 50 μM
Item-by-item account of % Inhibition (5:1)
readout: % Inhibition (5:1) (%)

molecule	numericValue
COC(=O)C(CCc1cn(Cc2cnc(C)nc2N)nn1)C(=O)OC [13a]	62
COC(=O)C(CCCc1cn(Cc2cnc(C)nc2N)nn1)C(=O)OC [13b]	65
Cc1ncc(Cn2cc(CCCC(=O)[O-])nn2)c(N)n1.[K+] [16a]	59
Cc1ncc(Cn2cc(CCCC(C(=O)[O-])C(=O)[O-])nn2)c(N)n1.[K+].[K+] [14b]	85
Cc1ncc(Cn2cc(CCC(C(=O)[O-])C(=O)[O-])nn2)c(N)n1.[K+].[K+] [14a]	76
Cc1ncc(Cn2cc(CCCCC(=O)[O-])nn2)c(N)n1.[K+] [16b]	63
COC(=O)CCCc1cn(Cc2cnc(C)nc2N)nn1 [15a]	52
COC(=O)CCCCc1cn(Cc2cnc(C)nc2N)nn1 [15b]	59

====

targetOfAssay: E. coli OGDH E1 (Escherichia coli)
Sequence (P0AFG3 whole entry): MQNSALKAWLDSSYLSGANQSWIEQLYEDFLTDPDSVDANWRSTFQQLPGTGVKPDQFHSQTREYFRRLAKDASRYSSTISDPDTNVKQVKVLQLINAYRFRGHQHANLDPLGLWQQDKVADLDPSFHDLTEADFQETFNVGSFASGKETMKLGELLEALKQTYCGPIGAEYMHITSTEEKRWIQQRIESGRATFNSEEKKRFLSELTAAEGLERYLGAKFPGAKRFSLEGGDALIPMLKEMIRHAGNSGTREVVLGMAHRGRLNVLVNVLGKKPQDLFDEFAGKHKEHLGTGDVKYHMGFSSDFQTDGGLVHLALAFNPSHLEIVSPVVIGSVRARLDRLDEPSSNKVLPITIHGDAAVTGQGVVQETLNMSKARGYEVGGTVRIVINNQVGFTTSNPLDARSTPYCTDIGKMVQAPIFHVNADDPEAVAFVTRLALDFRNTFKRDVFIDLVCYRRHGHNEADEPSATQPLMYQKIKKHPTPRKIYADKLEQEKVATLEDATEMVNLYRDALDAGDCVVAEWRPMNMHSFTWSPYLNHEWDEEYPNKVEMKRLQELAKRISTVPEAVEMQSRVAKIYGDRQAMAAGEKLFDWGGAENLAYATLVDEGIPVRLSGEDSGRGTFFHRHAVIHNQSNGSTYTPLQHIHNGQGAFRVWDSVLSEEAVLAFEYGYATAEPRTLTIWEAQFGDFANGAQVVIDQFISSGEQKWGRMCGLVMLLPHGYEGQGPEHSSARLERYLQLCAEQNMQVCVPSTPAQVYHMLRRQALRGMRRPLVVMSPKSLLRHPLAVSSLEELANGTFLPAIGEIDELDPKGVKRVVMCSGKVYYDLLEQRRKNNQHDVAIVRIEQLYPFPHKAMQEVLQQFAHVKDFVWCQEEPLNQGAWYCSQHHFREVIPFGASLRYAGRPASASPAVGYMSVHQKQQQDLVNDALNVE
assay: E. coli OGDH E1 inhibitory activity assay (DCPIP reduction)
Format: biochemical
runConditions: [TPP] = 60 µM; read-out: IC50 (μM ± SEM)

compound	IC50
COC(=O)CCCCc1cn(Cc2cnc(C)nc2N)nn1 [15b]	353 µM
COC(=O)C(CCCc1cn(Cc2cnc(C)nc2N)nn1)C(=O)OC [13b]	251 µM
COC(=O)CCCc1cn(Cc2cnc(C)nc2N)nn1 [15a]	407 µM
COC(=O)C(CCc1cn(Cc2cnc(C)nc2N)nn1)C(=O)OC [13a]	394 µM

====

targetOfAssay: A. viridans PO (Aerococcus viridans)
assay: A. viridans PO inhibitory activity assay (quinoneimine dye)
Format: biochemical
runConditions: [TPP] = 60 µM; read-out: IC50 (μM ± SEM)
Item-by-item account of IC50
readout: IC50 (µM)

compound	targetOfAssay	readoutUnits	numericValue
COC(=O)C(CCCc1cn(Cc2cnc(C)nc2N)nn1)C(=O)OC [13b]	A. viridans PO (Aerococcus viridans)	µM	152
COC(=O)CCCCc1cn(Cc2cnc(C)nc2N)nn1 [15b]	A. viridans PO (Aerococcus viridans)	µM	214
COC(=O)CCCc1cn(Cc2cnc(C)nc2N)nn1 [15a]	A. viridans PO (Aerococcus viridans)	µM	274
COC(=O)C(CCc1cn(Cc2cnc(C)nc2N)nn1)C(=O)OC [13a]	A. viridans PO (Aerococcus viridans)	µM	189

====

targetOfAssay: A. viridans PO (Aerococcus viridans, UniProt A9X9K8)
Sequence (A9X9K8 entry or part of it): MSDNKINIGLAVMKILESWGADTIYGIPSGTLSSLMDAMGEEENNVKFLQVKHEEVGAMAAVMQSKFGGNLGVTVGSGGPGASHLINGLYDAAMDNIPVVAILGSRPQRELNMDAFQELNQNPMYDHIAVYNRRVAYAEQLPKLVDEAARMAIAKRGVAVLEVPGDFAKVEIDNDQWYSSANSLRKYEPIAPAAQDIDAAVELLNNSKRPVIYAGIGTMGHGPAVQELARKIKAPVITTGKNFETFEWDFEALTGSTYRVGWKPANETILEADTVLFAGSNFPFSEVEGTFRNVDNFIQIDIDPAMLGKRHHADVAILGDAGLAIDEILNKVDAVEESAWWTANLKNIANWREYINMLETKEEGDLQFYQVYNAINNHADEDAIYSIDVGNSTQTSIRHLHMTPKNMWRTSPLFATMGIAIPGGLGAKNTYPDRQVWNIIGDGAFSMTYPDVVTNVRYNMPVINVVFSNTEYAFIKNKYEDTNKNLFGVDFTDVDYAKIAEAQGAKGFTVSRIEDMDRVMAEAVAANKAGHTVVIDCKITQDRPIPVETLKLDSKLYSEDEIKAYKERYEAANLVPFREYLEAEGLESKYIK
assay: A. viridans PO inhibitory activity assay (quinoneimine dye)
Type: biochemical
runConditions: read-out: IC50 (μM ± SEM); [TPP] = 60 µM
Item-by-item account of IC50
readout: IC50 (µM)

compound	readout	numericValue
Cc1ncc(Cn2cc(CCCC(C(=O)[O-])C(=O)[O-])nn2)c(N)n1.[K+].[K+] [14b]	IC50	49
Cc1ncc(Cn2cc(CCCCC(=O)[O-])nn2)c(N)n1.[K+] [16b]	IC50	171
Cc1ncc(Cn2cc(CCC(C(=O)[O-])C(=O)[O-])nn2)c(N)n1.[K+].[K+] [14a]	IC50	87
Cc1ncc(Cn2cc(CCCC(=O)[O-])nn2)c(N)n1.[K+] [16a]	IC50	202

====

targetOfAssay: A. viridans PO (Aerococcus viridans, UniProt A9X9K8)
assay: A. viridans PO inhibitory activity assay (quinoneimine dye)
Type: biochemical
runConditions: calculated from KM(TPP) 5 µM using [TPP]/IC50 = KM(TPP)/KI
readout: Ki (µM)

compound	readoutUnits	numericValue
Cc1ncc(Cn2cc(CCC(C(=O)[O-])C(=O)[O-])nn2)c(N)n1.[K+].[K+] [14a]	µM	7.3
Cc1ncc(Cn2cc(CCCC(C(=O)[O-])C(=O)[O-])nn2)c(N)n1.[K+].[K+] [14b]	µM	4.1
Cc1ncc(Cn2cc(CCCC(=O)[O-])nn2)c(N)n1.[K+] [16a]	µM	17
Cc1ncc(Cn2cc(CCCCC(=O)[O-])nn2)c(N)n1.[K+] [16b]	µM	14

====

targetOfAssay: Porcine PDH E1 (Sus scrofa, UniProt P29804)
Sequence (P29804 30-389): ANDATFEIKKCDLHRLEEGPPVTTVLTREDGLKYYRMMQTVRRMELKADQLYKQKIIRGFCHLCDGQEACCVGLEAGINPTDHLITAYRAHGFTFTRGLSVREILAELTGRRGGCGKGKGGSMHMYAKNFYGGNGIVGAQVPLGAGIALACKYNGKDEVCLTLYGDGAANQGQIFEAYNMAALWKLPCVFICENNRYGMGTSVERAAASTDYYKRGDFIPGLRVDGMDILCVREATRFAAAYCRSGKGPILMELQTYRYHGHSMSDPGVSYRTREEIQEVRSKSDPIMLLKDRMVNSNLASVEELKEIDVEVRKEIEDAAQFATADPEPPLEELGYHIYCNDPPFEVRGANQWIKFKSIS
assay: Porcine PDH E1 inhibitory activity assay (DCPIP reduction)
Assay type: biochemical
runConditions: [TPP] = 60 µM; read-out: IC50 (μM ± SEM)
Item-by-item account of IC50

compound	IC50, µM
COC(=O)CCCCc1cn(Cc2cnc(C)nc2N)nn1 [15b]	126
COC(=O)CCCc1cn(Cc2cnc(C)nc2N)nn1 [15a]	167
Cc1ncc(Cn2cc(CCCC(C(=O)[O-])C(=O)[O-])nn2)c(N)n1.[K+].[K+] [14b]	25
Cc1ncc(Cn2cc(CCCC(=O)[O-])nn2)c(N)n1.[K+] [16a]	111
COC(=O)C(CCCc1cn(Cc2cnc(C)nc2N)nn1)C(=O)OC [13b]	68
COC(=O)C(CCc1cn(Cc2cnc(C)nc2N)nn1)C(=O)OC [13a]	114
Cc1ncc(Cn2cc(CCCCC(=O)[O-])nn2)c(N)n1.[K+] [16b]	92
Cc1ncc(Cn2cc(CCC(C(=O)[O-])C(=O)[O-])nn2)c(N)n1.[K+].[K+] [14a]	37
